TEST SUMMARY: Mouse pharmacokinetics (oral cassette dosing), plasma
Assay type: in vivo
ASSAY CONTEXT: BALB/c immunocompetent mice, 5 mg/kg p.o.
Exercise: for every item that follows, state its recorded Tmax.
State just the number; it will be interpreted in min.

Request: Given CNS(=O)(=O)Nc1cccc(Cc2c(CN(C)C)c3cc(Cl)c(OC(=O)N(C)C)cc3oc2=O)c1F , state its recorded Tmax.
Result: 60

Request: Query: Tmax; subject: CNS(=O)(=O)Nc1cccc(Cc2c(CN(C)C)c3ccc(OC(=O)N(C)C)cc3oc2=O)c1F
Result: 4.98

Request: I have this molecule here, CCS(=O)(=O)Nc1cccc(Cc2c(CN(C)C)c3ccc(OC(=O)N(C)C)cc3oc2=O)c1F , and I need its recorded Tmax.
Result: 4.98

Request: # Tmax lookup, item CCN(C)Cc1c(Cc2cccc(NS(=O)(=O)CC)c2F)c(=O)oc2cc(OC(=O)N(C)C)c(Cl)cc12
Result: 120

Request: So what does the record say about Tmax for CNS(=O)(=O)Nc1cccc(Cc2c(CN(C)C)c3cc(F)c(OC(=O)N(C)C)cc3oc2=O)c1F ?
Result: 4.98

----------
Give measured half-life at 2 μM for each item. Keep answers brief.
TEST SUMMARY: Plasma stability, human plasma (K2EDTA)
Format: in vitro ADME
ASSAY CONTEXT: pH 7.4; human plasma, 2 μM, anti-coagulant K2-EDTA, 10 to 120 min; read-out: T1/2
Experimental: Individual stock solutions of propantheline and lovastatin were prepared at 10 mM in DMSO and were further diluted to 2 mM with DMSO. […] Data Analysis: Peak area ratios for IS-normalized test article and control article counts were used to calculate the percent remaining relative to the time zero (T0) value. As appropriate, results were plotted and further analyzed to calculate half-life (T1/2) values. […]

Request: May I ask what half-life at 2 μM has been recorded for CCN(C)Cc1c(Cc2cccc(NS(=O)(=O)NC)c2F)c(=O)oc2cc(OC(=O)N(C)C)c(F)cc12 ?
Result: 68.6 h

Request: // query half-life at 2 μM value for entry CNS(=O)(=O)Nc1cccc(Cc2c(CN(C)C)c3ccc(OC(=O)N(C)C)cc3oc2=O)c1Cl
Result: > 2 h

Request: Given the compound CCN(C)Cc1c(Cc2cccc(NS(=O)(=O)NC)c2Cl)c(=O)oc2cc(OC(=O)N(C)C)ccc12 , what is its reported half-life at 2 μM?
Result: > 2 h

----------
Recorded A-B Permeability Ranking values (Caco-2 cells) are given below.

>  <COMPOUND>
CNC(=C[N+](=O)[O-])NCCSCc1ccc(CN(C)C)o1 [Ranitidine]

>  <A-B Permeability Ranking>
Low

$$$$
>  <COMPOUND>
Cn1cnc2c(F)c(Nc3ccc(Br)cc3Cl)c(C(=O)NOCCO)cc21 [Reference-1, Selumetinib]

>  <A-B Permeability Ranking>
High

$$$$
>  <COMPOUND>
CNS(=O)(=O)Nc1nccc(Cc2c(C)c3ccc(Oc4ncccn4)cc3oc2=O)c1F [Reference-2, reference compound]

>  <A-B Permeability Ranking>
High

$$$$
>  <COMPOUND>
CC(=O)CC(c1ccccc1)c1c(O)c2ccccc2oc1=O (stereo not shown) [Warfarin]

>  <A-B Permeability Ranking>
High

$$$$

----------
System: phospho-ERK in A549 (KRAS G12S) cells
TEST SUMMARY: Cell-based pERK (pERK:tERK) in A549 cells
ASSAY CONTEXT: 10 nM, 2 h; phospho- to total protein ratio normalized to DMSO control (Table 9)
A549-pERK (10 nM, 2 h) under 80 gets met, anything at or over 80 gets not met.

Request: Is the reported A549-pERK (10 nM, 2 h) for Cc1c(Cc2cccc(NS(=O)(=O)C3CCC3)c2F)c(=O)oc2cc(OC(=O)N(C)C)ccc12 [Compound 118] strictly below 80?
Result: met

Request: Record CNS(=O)(=O)Nc1cccc(Cc2c(CN3CCN(C)CC3)c3ccc(OC(=O)N(C)C)cc3oc2=O)c1F [Compound 15] : is its A549-pERK (10 nM, 2 h) strictly below 80?
Result: met

Request: Check if A549-pERK (10 nM, 2 h) falls below 80 for CNS(=O)(=O)Nc1cccc(Cc2c(CN(C)C)c3ccc(OC(=O)N4CCN(C)CC4)cc3oc2=O)c1F [Compound 127] .
Result: not met

Request: Problem: For the compound CNS(=O)(=O)Nc1cccc(Cc2c(CNCc3ccco3)c3ccc(OC(=O)N(C)C)cc3oc2=O)c1F [Compound 56] , is A549-pERK (10 nM, 2 h) under 80?
Result: not met

Request: Decide: A549-pERK (10 nM, 2 h) of CNS(=O)(=O)Nc1cccc(Cc2c(CNC(=O)C(C)C)c3ccc(OC(=O)N(C)C)cc3oc2=O)c1F [Compound 208] strictly below 80?
Result: not met

Request: Please determine if CNS(=O)(=O)Nc1cccc(Cc2c(CN3CC4CC3CN4)c3ccc(OC(=O)N(C)C)cc3oc2=O)c1F (stereo not drawn) [Compound 138] is below 80 in terms of A549-pERK (10 nM, 2 h).
Result: not met

Request: Would you kindly verify if A549-pERK (10 nM, 2 h) of CNS(=O)(=O)Nc1cccc(Cc2c(CN3CCN(Cc4ccccc4)CC3)c3ccc(OC(=O)N(C)C)cc3oc2=O)c1F [Compound 16] is strictly less than 80?
Result: not met

Request: Regarding CNS(=O)(=O)Nc1nccc(Cc2c(CN(C)C)c3ccc(OC(=O)N(C)C)cc3oc2=O)c1F [Compound 124] , kindly confirm whether its A549-pERK (10 nM, 2 h) is beneath 80.
Result: not met

Request: Input CNS(=O)(=O)Nc1cccc(Cc2c(CN(C)C)c3cc(Cl)c(OC(=O)N(C)C)cc3oc2=O)c1F [Compound 24] ; condition: A549-pERK (10 nM, 2 h) strictly below 80. Does it hold?
Result: met

Request: Does this compound meet the criterion A549-pERK (10 nM, 2 h) < 80? CNS(=O)(=O)Nc1cccc(Cc2c(CNc3ccnn3C)c3ccc(OC(=O)N(C)C)cc3oc2=O)c1F [Compound 96]
Result: not met

Request: Field: below-cutoff. Rule: recorded A549-pERK (10 nM, 2 h) strictly less than 80. Subject: CNS(=O)(=O)Nc1cccc(Cc2c(CN3CC(C#N)C3)c3ccc(OC(=O)N(C)C)cc3oc2=O)c1F [Compound 172]
Result: not met

Request: For this compound, is A549-pERK (10 nM, 2 h) lower than 80? CNS(=O)(=O)Nc1cccc(Cc2c(CN3CC(Cl)C3)c3ccc(OC(=O)N(C)C)cc3oc2=O)c1F [Compound 145]
Result: not met

Request: Regarding CNS(=O)(=O)Nc1nccc(Cc2c(C)c3cc(Cl)c(OC(=O)N(C)C)cc3oc2=O)c1F [Compound 111] , kindly confirm whether its A549-pERK (10 nM, 2 h) is beneath 80.
Result: met

Request: Is it true that A549-pERK (10 nM, 2 h) reported for CN(C)C(=O)Oc1ccc2c(CN3CCC3)c(Cc3ccnc(NS(=O)(=O)C4CC4)c3F)c(=O)oc2c1 [Compound 155] is less than 80?
Result: not met

Request: A549-pERK (10 nM, 2 h) under 80? Item: C#CCN(C)Cc1c(Cc2cccc(NS(=O)(=O)NC)c2F)c(=O)oc2cc(OC(=O)N(C)C)ccc12 [Compound 76]
Result: met

----------
TEST SUMMARY: Plasma stability, mouse plasma (Balb/c; Table 5 head CD-1 Mouse)
Assay type: in vitro ADME
ASSAY CONTEXT: balb/c plasma, 2 μM, anti-coagulant K2-EDTA, 120 min
Structures can show the parent of a compound that is named as a salt.
I'd appreciate it if you could supply % Remaining at T120 values for the items below.
Number in %, nothing else.

Request: Value lookup for % Remaining at T120; key = CCN(C)Cc1c(Cc2cccc(NS(=O)(=O)NC)c2F)c(=O)oc2cc(OC(=O)N(C)C)c(F)cc12
Result: 57.5

Request: Look up % Remaining at T120 for this compound: CNS(=O)(=O)Nc1cccc(Cc2c(CN(C)C)c3ccc(OC(=O)N(C)C)cc3oc2=O)c1Cl
Result: 92.7

Request: Look at this compound and give its reported % Remaining at T120. CCS(=O)(=O)Nc1cccc(Cc2c(CN3CCNCC3)c3cc(Cl)c(OC(=O)N(C)C)cc3oc2=O)c1Cl [Compound 257, hydrochloride]
Result: 87.5

Request: Consider the compound CNS(=O)(=O)Nc1cccc(Cc2c(CN(C)C)c3cc(F)c(OC(=O)N(C)C)cc3oc2=O)c1F and give its measured % Remaining at T120.
Result: 99.9

Request: So what's the measured % Remaining at T120 for this one? CNS(=O)(=O)Nc1cccc(Cc2c(CN3CCNCC3)c3ccc(OC(=O)N(C)C)cc3oc2=O)c1Cl [Compound 246, hydrochloride]
Result: 94.5
